Assay: Levels of PCB 95 and its hydroxylated metabolites in adipose, blood, brain and liver 24 h after a single oral dose (GC-MS/MS)
Assay type: in vivo, mice
Conditions: female, Cyp2abfgs-null (KO), mouse, adipose, po, 1 mg/kg, FKO, female Cyp2abfgs-null mice, single oral PCB 95 1.0 mg/kg, mean ± SD, read-out: Levels in adipose
measured.quantity: concentration at 24 h (ng/g)
Numbers only here, please. The scale is ng/g.

Give its concentration at 24 h value. Item: Oc1cc(Cl)c(-c2c(Cl)ccc(Cl)c2Cl)cc1Cl
1.5

Requested field: concentration at 24 h. Item: Oc1cc(Cl)c(Cl)c(-c2cc(Cl)ccc2Cl)c1Cl
1

Any idea what concentration at 24 h was measured for Oc1c(O)c(Cl)c(-c2cc(Cl)ccc2Cl)c(Cl)c1Cl ?
1.6

What does the data say about its concentration at 24 h? Entry: Clc1ccc(Cl)c(-c2c(Cl)ccc(Cl)c2Cl)c1
859

----------
Experiment: Levels of PCB 95 and its hydroxylated metabolites in adipose, blood, brain and liver 24 h after a single oral dose (GC-MS/MS)
Type: in vivo, mice
Details: male, Cyp2abfgs-null (KO), mouse, adipose, po, 1 mg/kg, MKO, male Cyp2abfgs-null mice, single oral PCB 95 1.0 mg/kg, mean ± SD, read-out: Levels in adipose
Could you please mark Satisfied for values of concentration at 24 h below 2 ng/g and Not satisfied for values at or above it?

Decide: concentration at 24 h of Oc1cc(Cl)c(-c2c(Cl)ccc(Cl)c2Cl)cc1Cl strictly below 2 ng/g?
Not satisfied

Consider the compound Clc1ccc(Cl)c(-c2c(Cl)ccc(Cl)c2Cl)c1 . Is its concentration at 24 h strictly less than 2 ng/g?
Not satisfied

Dear reviewer, please state whether Oc1cc(Cl)c(-c2cc(Cl)ccc2Cl)c(Cl)c1Cl has concentration at 24 h strictly beneath 2 ng/g.
Satisfied

Here's an entry: Oc1c(Cl)cc(Cl)c(-c2cc(Cl)ccc2Cl)c1Cl . Is its concentration at 24 h below 2 ng/g?
Satisfied

Could you please tell me whether concentration at 24 h recorded for Oc1cc(Cl)c(Cl)c(-c2cc(Cl)ccc2Cl)c1Cl is less than 2 ng/g?
Not satisfied

Problem: For the compound Oc1c(O)c(Cl)c(-c2cc(Cl)ccc2Cl)c(Cl)c1Cl , is concentration at 24 h under 2 ng/g?
Satisfied

----------
Assignment: determine reported concentration at 24 h for the given compounds.
Experiment: Levels of PCB 95 and its hydroxylated metabolites in adipose, blood, brain and liver 24 h after a single oral dose (GC-MS/MS)
Assay type: in vivo, mice
Settings: male, C57BL/6 (wild-type), mouse, whole blood, po, 1 mg/kg, MWT, male wildtype mice, single oral PCB 95 1.0 mg/kg, mean ± SD, read-out: Levels in blood
Report field: quantity (unit follows the number).

// concentration at 24 h lookup, key: Oc1c(O)c(Cl)c(-c2cc(Cl)ccc2Cl)c(Cl)c1Cl
9.1 ng/g

Item under review: Oc1c(Cl)cc(Cl)c(-c2cc(Cl)ccc2Cl)c1Cl . Reported concentration at 24 h?
0.6 ng/g

Name the recorded concentration at 24 h for Oc1cc(Cl)c(-c2c(Cl)ccc(Cl)c2Cl)cc1Cl .
3.5 ng/g

Recorded concentration at 24 h of Oc1cc(Cl)c(Cl)c(-c2cc(Cl)ccc2Cl)c1Cl , please.
1.1 ng/g

concentration at 24 h lookup needed for Oc1cc(Cl)c(-c2cc(Cl)ccc2Cl)c(Cl)c1Cl , thanks.
3.2 ng/g

Using the record for Clc1ccc(Cl)c(-c2c(Cl)ccc(Cl)c2Cl)c1 , report its concentration at 24 h.
14.1 ng/g
